Recorded growth, one value per entry.
System: COLO 205 colon
Experiment: NCI-60 one-dose screen, 48 h (100 = growth as untreated, 0 = no growth, -100 = all killed)
Conditions: 10 µM unless noted
About 83,000 compounds went through this panel and 20% of them were active in at least one assay; those are over-represented in the sample as a whole.
Value expressed in %; do not type the unit.

Record COc1ccc(C2C(C#N)=C(N)Oc3n[nH]c(-c4cccs4)c32)cc1I (configuration not stated) : what is its growth with COLO 205 colon?
117

Record `O=C(COc1cccc(/C=C2\COc3ccc(Cl)cc3C2=O)c1)c1ccc(Cl)cc1` : what is its growth with COLO 205 colon?
116

Record `Cn1ncc2c(=O)nc3c(-c4ccccc4)n[nH]n3c21` : what is its growth with COLO 205 colon?
119

Further cases:
Record `COC(=O)c1ccc(NC(=O)c2ccc(-c3cccc([N+](=O)[O-])c3)o2)cc1` : what is its growth with COLO 205 colon?
108

Record `COc1cccc(-c2nc(SCC(=O)Nc3ccc(C(=O)/C=C/c4ccc(OC)c(OC)c4)cc3)[nH]c(=O)c2C#N)c1` : what is its growth with COLO 205 colon?
103

Record `O=C1/C(=C/c2ccc(Cl)cc2)SC(=S)N1CCc1ccc(O)cc1` : what is its growth with COLO 205 colon?
110

Record `O=C1c2cc3c(cc2-c2c1c1ccc(F)cc1c(=O)n2C[C@H](O)[C@H](O)[C@H](O)CO)OCO3` : what is its growth with COLO 205 colon?
-30.9

---

Test system: UACC-62 melanoma
Experiment: NCI-60 one-dose screen, 48 h
Conditions: 10 µM unless noted
This is part of a sample that, as a whole, favours compounds with a hit. Of some 83,000 tested, about 20% had one in any assay. Activity calls are given as the source filed them. How the source made its calls: active means growth percent below 10; inactive means the rest.
Field 'call' accepts t for active, f for inactive

Here are 2 compounds together with their reported answers.
What is the recorded call for this compound in the test? `O=C1c2ccccc2C(=O)c2c1ccc1[nH]c(-c3cccs3)nc21`
f

What is the recorded call for this compound in the test? CCc1nc(N)nc(N)c1C#CC(C)c1cc(-c2ccnc(C)c2)c2oc(C)nc2c1 (stereo unspecified)
t

Further cases:
What is the recorded call for this compound in the test? `NS(=O)(=O)c1ccc(CN=C2NC(=O)S/C2=C\c2ccc(Br)cc2)cc1`
f

What is the recorded call for this compound in the test? `COc1ccc(-c2cc(=O)c3c(OC)c4ccoc4cc3o2)cc1`
f

What is the recorded call for this compound in the test? `Cn1c(=O)c2c(nc3n(-c4ccc(Cl)cc4Cl)c(Sc4nc(-c5ccccc5)c(C#N)c(=O)[nH]4)cn23)n(C)c1=O`
f

What is the recorded call for this compound in the test? `CN(C)CCCNc1c2ccccc2nc2ccccc12`
f

What is the recorded call for this compound in the test? `Cc1cc(C)nc(SC2=C(Nc3ccc(C)c(Cl)c3)C(=O)N(Cc3ccccc3)C2=O)n1`
f

What is the recorded call for this compound in the test? `COc1cc2nc(N3CCCC3)nc(NCc3ccccc3)c2cc1OC`
f

What is the recorded call for this compound in the test? `Cc1c(/C=C/[N+](=O)[O-])ccc2c1[nH]c1ccccc12`
f

What is the recorded call for this compound in the test? `O=C1c2cc3c(cc2-c2c1c1ccc(F)cc1c(=O)n2C[C@H](O)[C@@H](O)[C@H](O)CO)OCO3`
t

What is the recorded call for this compound in the test? `CSc1ccc(-c2ccccc(=O)c2O)cc1`
t

---

Test system: 786-0 renal
Assay: NCI-60 one-dose screen, 48 h (100 = growth as untreated, 0 = no growth, -100 = all killed)
Conditions: 10 µM unless noted
Description: Cells are grown in 96 well plates and exposed to the test compound for 48 hours. Compounds are tested at a single concentration, which is 10^-5 M for most compounds. The reported endpoint is percent growth (GI% or GIPRCNT), where numbers from 0 - 100% represent growth inhibition, and numbers from -100% - 0 represent cell death. For example, a value of 40 represents 60% growth inhibition. A value of 0 means no net growth occurred over the course of the experiment. […]
This is part of a sample that, as a whole, favours compounds with a hit. Of some 83,000 tested, about 20% had one in any assay. Active and inactive are the calls of the source. Rule for the calls: active = growth percent below 10; inactive = the rest.
Recorded growth, one value per entry.

See these solved cases before continuing.
Please report the recorded growth for `O=C1/C(=C/c2cn(-c3ccccc3)nc2-c2ccccc2)SC(=S)N1CCc1ccccc1` .
106% (inactive)

Please report the recorded growth for COc1ccc(/C=N/C2=C(C#N)C(c3ccc(N(C)C)cc3)c3ccc4ccccc4c3O2)cc1 (stereo not given) .
83.1% (inactive)

Please report the recorded growth for `O=C1Nc2c(ccc(Cl)c2Cl)/C1=C\c1cc(C(F)(F)F)cc(C(F)(F)F)c1` .
-11.2% (active)

Please report the recorded growth for `Cc1cc(N[C@@H]2CCC[C@H](Nc3ccnc4cc(Cl)ccc34)C2)nc(N2CCCCCC2)n1` .
-96.1% (active)

Please report the recorded growth for Cc1ccc2c(C(C[N+](=O)[O-])c3ccccc3)c(-c3ccccc3)[nH]c2c1 (stereo not given) .
30.8% [9.5 µM] (inactive)

Please report the recorded growth for `CN(C)c1ccc(N=Nc2ccccn2)c(O)c1` .
15% (inactive)

Please report the recorded growth for `CC1=C[C@H]2c3c(c(O)c(O)c4oc5ccccc5c(=O)c34)[C@H](c3cc(O)c(O)c4oc5ccccc5c(=O)c34)[C@H]2C(C)(C)C1` .
-76.6% (active)

Please report the recorded growth for `COc1ccc(/C=C(\C#N)C(=O)Nc2cccc(Nc3nc(SC)nc(-c4cccc([N+](=O)[O-])c4)c3C#N)c2)cc1OC` .
106% (inactive)

Further cases:
Please report the recorded growth for `O=C1/C(=C/c2ccc3c(c2)OCO3)SC(=S)N1CCc1ccc(O)cc1` .
75.2% (inactive)

Please report the recorded growth for `Cc1cn2c(/C=C3/C(=O)Nc4c3ccc3ccccc43)c(C(F)(F)F)nc2s1` .
24.8% (inactive)

Please report the recorded growth for `CCOC(=O)c1sc2nc(-c3cccc(O)c3)nc(N3CCOCC3)c2c1C` .
67.7% (inactive)

Please report the recorded growth for `COc1cc2c(cc1-c1c(C)noc1C)ncc1nc(C3CCOCC3)n([C@H](C)COC(F)F)c12` .
48% (inactive)

Please report the recorded growth for `COc1ccc(C(=O)c2sc3nc(C)cc(C)c3c2N)cc1OC` .
99.5% (inactive)

Please report the recorded growth for `OCCN1CCN(c2nc(Nc3ccc(-c4nc5ccccc5[nH]4)cc3)c3cn[nH]c3n2)CC1` .
-88.5% (active)

Please report the recorded growth for `Clc1ccc2c(NCCNc3nc(N4CCCCC4)nc4ccccc34)ccnc2c1` .
-36.9% (active)

Please report the recorded growth for `CC(C)C1=C[C@@]23CC[C@@H]4[C@](C)(CCC[C@@]4(C)C(=O)N4CCCNCC4)[C@H]2C[C@@H]1[C@H]1C(=O)CCC(=O)[C@H]13` .
104% (inactive)

Please report the recorded growth for `COc1ccc(CN2c3ccccc3Oc3ccccc32)cc1F` .
79.2% (inactive)

Please report the recorded growth for `CC(=O)O[C@H]1CC[C@]2(C)[C@H]3CC=C4[C@@H]5CC(C)(C)CC[C@]5(C(=O)NCCNCCNCCN)CC[C@@]4(C)[C@]3(C)CC[C@H]2C1(C)C` .
-56.3% (active)

Please report the recorded growth for `CSc1nc(-c2cccc(NC(=O)CCl)c2)c(C#N)c(=O)n1C` .
53% (inactive)

---

Test system: SF-539 CNS
Experiment: NCI-60 one-dose screen, 48 h
Settings: 10 µM unless noted
This is part of a sample that, as a whole, favours compounds with a hit. Of some 83,000 tested, about 20% had one in any assay. Activity calls are given as the source filed them. How the source made its calls: active means growth percent below 10; inactive means the rest.
Field 'call' accepts class 1 = active, class 0 = inactive

Here are 6 compounds together with their reported answers.
What is the recorded call for this compound in the test? `CN(C)c1ccc(N=Nc2ccccn2)c(O)c1`
class 1

What is the recorded call for this compound in the test? `Clc1ccc2c(NCCCCNc3nc(N4CCOCC4)nc4ccccc34)ccnc2c1`
class 1

What is the recorded call for this compound in the test? `Nc1ccc(S(=O)(=O)O)c2ccc(N=Nc3ccc(N=Nc4ccc(S(=O)(=O)O)cc4)c4ccccc34)c(O)c12`
class 0

What is the recorded call for this compound in the test? CCn1c(O)c(/C=N/NC(=O)C(C)c2ccc(CC(C)C)cc2)sc1=S (stereo not given)
class 1

What is the recorded call for this compound in the test? OC(c1cc2cc(Cl)c(Cl)cc2c2cc(C(F)(F)F)ccc12)C1CCCCN1 (stereo not given)
class 1

What is the recorded call for this compound in the test? `Cc1cc(NS(=O)(=O)c2ccc(-c3cnc(C4CC4)o3)cc2)ccc1Cl`
class 1

In the following, a different compound is considered.
What is the recorded call for this compound in the test? `COc1cc(-c2nc3cc(Cl)c(Cl)cc3[nH]2)ccc1OCC(=O)N=Nc1c(O)[nH]c2ccccc12`
class 1
